Biological target: human PAD4 (Homo sapiens, UniProt Q9UM07)
Construct: human PAD4 (NM_012387), A2P663, was PCR amplified; His-SUMO (N, cleaved yes); made in house; host or cells: E. coli BL21(DE3)
Sequence (Q9UM07 2-663): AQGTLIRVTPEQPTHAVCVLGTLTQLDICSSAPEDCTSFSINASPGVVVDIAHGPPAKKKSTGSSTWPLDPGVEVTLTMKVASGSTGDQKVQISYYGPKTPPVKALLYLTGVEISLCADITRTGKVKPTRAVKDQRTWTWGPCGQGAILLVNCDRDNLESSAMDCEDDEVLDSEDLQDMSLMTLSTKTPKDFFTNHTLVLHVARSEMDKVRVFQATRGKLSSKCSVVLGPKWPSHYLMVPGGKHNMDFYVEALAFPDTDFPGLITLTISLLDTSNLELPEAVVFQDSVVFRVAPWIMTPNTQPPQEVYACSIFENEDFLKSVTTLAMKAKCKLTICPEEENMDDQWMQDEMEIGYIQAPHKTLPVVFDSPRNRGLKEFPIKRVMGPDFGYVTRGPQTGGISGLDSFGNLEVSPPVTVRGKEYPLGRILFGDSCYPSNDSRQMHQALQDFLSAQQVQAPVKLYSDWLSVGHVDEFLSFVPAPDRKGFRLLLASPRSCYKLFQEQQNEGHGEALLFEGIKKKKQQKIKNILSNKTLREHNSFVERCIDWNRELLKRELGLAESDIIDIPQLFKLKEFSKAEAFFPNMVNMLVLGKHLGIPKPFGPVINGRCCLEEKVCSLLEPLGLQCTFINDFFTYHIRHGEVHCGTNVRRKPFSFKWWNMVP
Experiment: In vitro PAD4 BAEE biochemical assay
Conditions: human PAD4, BAEE substrate; 5 nM PAD4, 2 mM calcium chloride, 3 mM BAEE; geometric mean of multiple experiments
pIC50: −log10 of the molar value.
Parameter class (string): assigned from measured pIC50. Ranges: low band = under 6, middle band = from 6 up to 7, high band = 7 and over

compound: COc1cc(C(=O)N2[C@H]3CC[C@@H]2[C@H](N)C3)cc2nc(-c3cc4ccc(N5CC(c6ccccc6)CCS5(=O)=O)nc4n3CC3CC3)c(C)n12 (some centres unmarked) [Example 453]
category-label: low band

*Q* Category of COc1cc(C(=O)N2[C@H]3CC[C@@H]2[C@H](N)C3)cc2nc(-c3cc4ccc(N[C@@H](C)C(F)(F)F)nc4n3CC3CC3)c(C)n12 [Example 448] , please.
*A* low band

*Q* Category of CS(=O)(=O)N(c1ccc2cc(-c3nc4cc(C(=O)N5CCC[C@@H](N)C5)ccn4c3C3CC3)n(CC3CC3)c2n1)C(F)F [Example 398] , please.
*A* high band

*Q* Category of COc1cc(C(=O)N2C[C@@H]3CCNCC32)cc2nc(-c3cc4ccc(N(C(F)F)S(C)(=O)=O)nc4n3CC3CC3)c(C)n12 (some centres unmarked) [Example 287] , please.
*A* low band

*Q* Category of COc1cc(C(=O)N2[C@H]3CC[C@@H]2[C@H](N)C3)cc2nc(-c3cc4ccc([C@@H](C)NC(=O)[C@H](C)O)nc4n3CC3CC3)c(C)n12 [Example 94] , please.
*A* high band

*Q* Category of COc1cc(C(=O)N2C[C@H]3CC(F)[C@@H]2[C@@H]3N)cc2nc(-c3cc4ccc(N(C(F)F)S(C)(=O)=O)nc4n3CC3CC3)c(C)n12 (some centres unmarked) [Example 361] , please.
*A* middle band

----------
Kindly state IC50 for each of the entries shown.
Biological target: human PAD4 (Homo sapiens, UniProt Q9UM07)
Construct: human PAD4 (NM_012387), A2P663, was PCR amplified; His-SUMO (N, cleaved yes)
Test: In vitro PAD4 BAEE biochemical assay
Conditions: human PAD4, BAEE substrate; 5 nM PAD4, 2 mM calcium chloride, 3 mM BAEE; geometric mean of multiple experiments
One number for each entry, in nM.

Study these solved cases before continuing.
molecule: COc1cc(C(=O)N2[C@H]3CC[C@@H]2[C@H](N)C3)cc2nc(-c3cc4ccc([C@@H](C)NC(=O)C56CC(C#N)(C5)C6)nc4n3CC3CC3)c(C)n12 [Example 158]
IC50 [nM]: 73.8
--
molecule: COc1cc(C(=O)N2[C@H]3CC[C@@H]2[C@H](N)C3)cc2nc(-c3cc4ccc([C@@H](C)NC(=O)C56CC(C(F)(F)F)(C5)C6)nc4n3CC3CC3)c(C)n12 [Example 157]
IC50 [nM]: 133

*Q* Param item = COc1cc(C(=O)N2[C@H]3CC[C@@H]2[C@H](N)C3)cc2nc(-c3cc4ccc([C@@H](C)NC(=O)c5cccc(C#N)c5)nc4n3CC3CC3)c(C)n12 [Example 122] ; retrieve measured IC50.
*A* 78.5

----------
Target: human PAD4 (Homo sapiens, UniProt Q9UM07)
Construct: human PAD4 (NM_012387), A2P663, was PCR amplified; His-SUMO (N, cleaved yes)
Experiment: In vitro PAD4 BAEE biochemical assay
Conditions: human PAD4, BAEE substrate; 5 nM PAD4, 2 mM calcium chloride, 3 mM BAEE; geometric mean of multiple experiments
measured-endpoint: pIC50
One number for each entry, as −log10 of the molar value.

compound: COc1cc(C(=O)N2[C@H]3CC[C@@H]2[C@H](N)C3)cc2nc(-c3cc4ccc([C@@H](C)NC(=O)c5ccccc5)nc4n3CC3CC3)c(C3CC3)n12 [Example 142]
pIC50: 6.92
//
compound: COc1cc(C(=O)N2[C@H]3CC[C@@H]2[C@H](N)C3)cc2nc(-c3cc4ccc(C(C)C(N)=O)nc4n3CC3CC3)c(C)n12 (some centres unmarked) [Example 545]
pIC50: 7.09
//
compound: COc1cc(C(=O)N2[C@H]3CC[C@@H]2[C@H](N)C3)cc2nc(-c3cc4ccc(C(C)CC(=O)NC(C)(C)C)nc4n3CC3CC3)c(C)n12 (some centres unmarked) [Example 521]
pIC50: 6.91
//
compound: COc1cc(C(=O)N2[C@H]3CC[C@@H]2[C@H](N)C3)cc2nc(-c3cc4ccc([C@@H](C)NC(=O)c5ccn(C(F)F)n5)nc4n3CC3CC3)c(C)n12 [Example 81]
pIC50: 6.95

Now look at this entry.
*Q* Record COc1cc(C(=O)N2[C@H]3CC[C@@H]2[C@H](N)C3)cc2nc(-c3cc4ccc([C@@H](C)Nc5cnccn5)nc4n3CC3CC3)c(C)n12 [Example 263] : what is its pIC50 with human PAD4 (Homo sapiens, UniProt Q9UM07)?
*A* 7.15

----------
Biological target: human PAD4 (Homo sapiens, UniProt Q9UM07)
Construct: human PAD4 (NM_012387), A2P663, was PCR amplified; His-SUMO (N, cleaved yes)
Assay: In vitro PAD4 BAEE biochemical assay
Details: human PAD4, BAEE substrate; 5 nM PAD4, 2 mM calcium chloride, 3 mM BAEE; geometric mean of multiple experiments
Kindly state IC50 for each of the entries shown.
One number for each entry, in nM.

Hey, quick one: what's IC50 for each of these?
1. COc1cc(C(=O)N2[C@H]3CC[C@@H]2[C@H](N)C3)cc2nc(-c3cc4ccc([C@@H](C)NC(=O)C(C)C)nc4n3CC3CC3)c(C)n12 [Example 89]
2. COc1cc(C(=O)N2[C@H]3CC[C@@H]2[C@H](N)C3)cc2nc(-c3cc4ccc([C@@H](C)NC(=O)C(F)(F)F)nc4n3CC3CC3)c(C)n12 [Example 162]
3. COc1cc(C(=O)N2[C@H]3CC[C@@H]2[C@H](N)C3)cc2nc(-c3cc4ccc(N5[C@H](C)CCCS5(=O)=O)nc4n3CC3CC3)c(C)n12 [Example 463]
4. COc1cc(C(=O)N2[C@H]3CC[C@@H]2[C@H](N)C3)cc2nc(-c3cc4ccc([C@@H](C)NC(=O)c5cn(C)nn5)nc4n3CC3CC3)c(C)n12 [Example 1]
5. COc1cc(C(=O)N2CCC[C@@H](N)C2)cc2nc(-c3cc4ccc([C@@H](C)NC(=O)c5ccccc5)nc4n3CC3CC3)c(C3CC3)n12 [Example 141]
6. COc1cc(C(=O)N2[C@H]3CC[C@@H]2[C@H](N)C3)cc2nc(-c3cc4ccc([C@@H](C)NC(=O)c5ccnc(Cl)c5)nc4n3CC3CC3)c(C)n12 [Example 51]
7. COc1cc(C(=O)N2[C@H]3CC[C@@H]2[C@H](N)C3)cc2nc(-c3cc4ccc([C@@H](C)NC(=O)N5CCC(F)(F)CC5)nc4n3CC3CC3)c(C)n12 [Example 207]
8. CNC(=O)[C@@H](C)Oc1ccc2cc(-c3nc4cc(C(=O)N5CCC[C@@H](N)C5)cc(OC)n4c3C)n(CC3CC3)c2n1 [Example 618]

*A*
1: 40.1; 2: 99.1; 3: 133; 4: 85.7; 5: 187; 6: 30.9; 7: 46; 8: 401

----------
Biological target: human PAD4 (Homo sapiens)
Construct: human PAD4 (NM_012387), A2P663, was PCR amplified; His-SUMO (N, cleaved yes)
Assay: In vitro PAD4 BAEE biochemical assay
Conditions: human PAD4, BAEE substrate; 5 nM PAD4, 2 mM calcium chloride, 3 mM BAEE; geometric mean of multiple experiments
Kindly state log10(IC50) for each of the entries shown.
Values reflect log10 of reported IC50 (nM).

Study these solved cases before continuing.
molecule: COc1cc(C(=O)N2[C@H]3CC[C@@H]2[C@H](N)C3)cc2nc(-c3cc4ccc([C@@H](C)NC(=O)C5CCOCC5)nc4n3CC3CC3)c(C)n12
log10(IC50): 1.61
//
molecule: COc1cc(C(=O)N2CCC[C@@H](N)C2)cc2nc(-c3cc4ccc(-c5cccc6c5CNC6=O)nc4n3CC3CC3)c(C)n12
log10(IC50): 3.33
//
molecule: CCc1ccc2cc(-c3nc4cc(C(=O)N5[C@H]6CC[C@@H]5[C@H](N)C6)cc(OC)n4c3N)n(CC3CC3)c2n1
log10(IC50): 2.18
//
molecule: COc1cc(C(=O)N2[C@H]3CC[C@@H]2[C@H](N)C3)cc2nc(-c3cc4ccc([C@@H](C)NC(=O)c5ccccc5)nc4n3CC34CC(C3)C4)c(C)n12
log10(IC50): 2.25
//
molecule: COc1cc(C(=O)N2[C@H]3CC[C@@H]2[C@H](N)C3)cc2nc(-c3cc4ccc(N(C)S(C)(=O)=O)nc4n3CC3CC3)c(C)n12
log10(IC50): 1.67
//
molecule: CCc1cc(C(=O)N2CCC[C@@H](N)C2)cc2nc(-c3cc4ccc(N(C(F)F)S(C)(=O)=O)nc4n3CC3CC3)c(C)n12
log10(IC50): 1.98

Hey, quick one: what's log10(IC50) for each of these?
1. COc1cc(C(=O)N2[C@H]3CC[C@@H]2[C@H](N)C3)cc2nc(-c3cc4ccc([C@@H](C)NC(=O)c5cnn(C6CC6)c5)nc4n3CC3CC3)c(C)n12
2. COc1cc(C(=O)N2CCC[C@@H](N)C2)cc2nc(-c3cc4ccc(N(C(F)F)S(C)(=O)=O)nc4n3CC(F)(F)F)c(C)n12
3. COc1cc(C(=O)N2[C@H]3CC[C@@H]2[C@H](N)C3)cc2nc(-c3cc4ccc(-c5ccccc5C(F)(F)F)nc4n3CC3CC3)c(C)n12
4. CCCC(CC(=O)N1CCCC1)c1ccc2cc(-c3nc4cc(C(=O)N5[C@H]6CC[C@@H]5[C@H](N)C6)cc(OC)n4c3C)n(CC3CC3)c2n1 (some centres unmarked)
5. COc1cc(C(=O)N2[C@H]3CC[C@@H]2[C@H](N)C3)cc2nc(-c3cc4ccc([C@@H](C)NC(=O)C(C)(C)C(F)(F)F)nc4n3CC3CC3)c(C)n12

*A*
1: 1.61; 2: 2.44; 3: 3.56; 4: 2.43; 5: 2.25

Origin of the recorded values: patent US12240862B2
